Target: FAST (Fluorescence-Activating and absorption-Shifting Tag) (Halorhodospira halophila, UniProt P16113, C69G/P73S/Y94W/T95M/F96I/D97P/Y98T/Q99S/M100R/T101G)
Construct: engineered full-length PYP variant (~14 kDa); E. coli BL21(DE3)
Sequence (P16113 1-125 C69G/P73S/Y94W/T95M/F96I/D97P/Y98T/Q99S/M100R/T101G): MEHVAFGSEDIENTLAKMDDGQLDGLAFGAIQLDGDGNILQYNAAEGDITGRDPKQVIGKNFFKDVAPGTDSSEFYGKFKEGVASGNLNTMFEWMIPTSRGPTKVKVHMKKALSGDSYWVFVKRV
Assay: spectrofluorometric titration of protein with chromophore
Details: 0.10 µM protein, 25 °C
Parameter measured: Kd (nM)
Give the number; nM is assumed, so skip it.

[Q] So what does the record say about Kd for COc1cc(O)ccc1/C=C1N=C(/C=C/c2ccncc2)N(C)C\1=O [N871b] ?
[A] 170

###

Molecular target: FAST (Fluorescence-Activating and absorption-Shifting Tag) (Halorhodospira halophila, UniProt P16113, R52Y/C69G/Y94W/T95M/F96I/D97P/Y98T/Q99S/M100R/T101G)
Construct: gene pyp; engineered full-length PYP variant (~14 kDa); E. coli BL21(DE3)
Assay: spectrofluorometric titration of protein with chromophore
Format: binding
Conditions: 0.10 µM protein, 25 °C
Parameter measured: Kd (µM)
Give the number; µM is assumed, so skip it.

[Q] So what does the record say about Kd for COc1cc(O)ccc1/C=C1\N=C2C=C(/C=C/c3ccncc3)C=CN2C1=O [MCL.3a] ?
[A] 0.11

###

Target: FAST (Fluorescence-Activating and absorption-Shifting Tag) (Halorhodospira halophila, UniProt P16113, C69G/Y94W/T95M/F96I/D97P/Y98T/Q99S/M100R/T101G)
Construct: gene pyp; engineered full-length PYP variant (~14 kDa); E. coli BL21(DE3)
Experiment: spectrofluorometric titration of protein with chromophore
Assay type: binding
Settings: 0.10 µM protein, 25 °C
Measured Kd of individual entries
Give the number; µM is assumed, so skip it.

[Q] So what does the record say about Kd for `COc1cc(O)ccc1/C=C1N=C(/C=C/c2cccs2)N(C)C\1=O` ?
[A] 0.2

[Q] Ok, now `COc1cc(O)ccc1/C=C1\N=C2C=C(/C=C/c3ccncc3)C=CN2C1=O`
[A] 0.08

[Q] Ok, now COc1cc(O)ccc1/C=C1N=C(/C=C/c2ccncc2)N(C)C\1=O [N871b]
[A] 0.33

[Q] Ok, now `COc1cc(O)ccc1/C=C1N=C(/C=C/c2ccccn2)N(C)C\1=O`
[A] 0.27

###

Target: FAST (Fluorescence-Activating and absorption-Shifting Tag) (Halorhodospira halophila, UniProt P16113, R52E/D65R/C69G/Y94W/T95M/F96I/D97P/Y98T/Q99S/M100R/T101G)
Construct: gene pyp; engineered full-length PYP variant (~14 kDa); E. coli BL21(DE3)
Sequence (P16113 1-125 R52E/D65R/C69G/Y94W/T95M/F96I/D97P/Y98T/Q99S/M100R/T101G): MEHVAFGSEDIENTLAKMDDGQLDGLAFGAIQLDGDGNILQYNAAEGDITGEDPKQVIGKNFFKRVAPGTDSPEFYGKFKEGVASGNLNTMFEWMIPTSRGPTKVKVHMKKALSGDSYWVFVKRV
Test: spectrofluorometric titration of protein with chromophore
Type: binding
Details: 0.10 µM protein, 25 °C
Parameter measured: pKd
Please report pKd as the negative decimal logarithm of the molar concentration, giving only the number.

[Q] So what does the record say about pKd for COc1cc(O)ccc1/C=C1N=C(/C=C/c2ccncc2)N(C)C\1=O [N871b] ?
[A] 5.87
